Target: MCT1 (Homo sapiens (Human))
Sequence (P53985 whole entry): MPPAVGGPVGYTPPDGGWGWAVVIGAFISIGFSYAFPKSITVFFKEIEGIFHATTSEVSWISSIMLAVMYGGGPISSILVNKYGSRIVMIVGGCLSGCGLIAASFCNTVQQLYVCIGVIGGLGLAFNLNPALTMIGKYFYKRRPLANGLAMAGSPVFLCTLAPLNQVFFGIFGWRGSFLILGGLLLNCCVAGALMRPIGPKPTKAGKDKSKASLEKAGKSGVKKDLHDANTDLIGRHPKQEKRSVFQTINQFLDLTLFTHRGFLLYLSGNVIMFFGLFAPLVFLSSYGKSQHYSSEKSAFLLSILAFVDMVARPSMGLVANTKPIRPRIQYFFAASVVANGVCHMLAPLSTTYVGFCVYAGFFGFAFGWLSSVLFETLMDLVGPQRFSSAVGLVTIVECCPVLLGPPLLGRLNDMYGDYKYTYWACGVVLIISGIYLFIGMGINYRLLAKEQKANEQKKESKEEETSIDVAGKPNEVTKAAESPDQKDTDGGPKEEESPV
Sequence (P35613 140-385 partner): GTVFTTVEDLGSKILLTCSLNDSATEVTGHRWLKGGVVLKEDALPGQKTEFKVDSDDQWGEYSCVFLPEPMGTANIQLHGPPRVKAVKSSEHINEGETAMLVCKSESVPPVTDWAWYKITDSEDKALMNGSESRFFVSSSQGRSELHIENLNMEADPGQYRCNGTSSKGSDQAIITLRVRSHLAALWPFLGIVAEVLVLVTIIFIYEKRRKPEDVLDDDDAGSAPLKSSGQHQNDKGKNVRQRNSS
Test: MCT1-mediated lactate transport in BT20 breast cancer cells
Assay type: cell-based
Details: native MCT1, 10 mM L-lactate, Table 3
reported_property: IC50 (nM)
One number for each entry, in nM.

Some molecules with known IC50 results, for comparison:
[
  {
    "chemical_string": "COCc1cccc(-c2cc(COC(C)(C)C(=O)O)nn2Cc2ccccc2Cl)c1",
    "IC50, nM": 84000
  },
  {
    "chemical_string": "CC(C)(OCc1cc(-c2cncs2)n(Cc2ccccc2Cl)n1)C(=O)O",
    "IC50, nM": 130000
  },
  {
    "chemical_string": "COc1cccc(-c2cc(COC(C)(C)C(=O)O)nn2Cc2ccccc2N(C)C)c1",
    "IC50, nM": 60000
  },
  {
    "chemical_string": "COc1cccc(-c2cc(COC3(C(=O)O)CCC3)nn2Cc2ccccc2Cl)c1",
    "IC50, nM": 1200
  },
  {
    "chemical_string": "CC(C)COc1cccc(-c2cc(COC(C)(C)C(=O)O)nn2Cc2ccccc2Cl)c1",
    "IC50, nM": 5600
  },
  {
    "chemical_string": "CC(C)Oc1cccc(-c2cc(COC(C)(C)C(=O)O)nn2Cc2ccccc2Cl)c1",
    "IC50, nM": 59000
  },
  {
    "chemical_string": "CCC(CC)(OCc1cc(-c2cccc(OC)c2)n(Cc2ccccc2Cl)n1)C(=O)O",
    "IC50, nM": 17000
  },
  {
    "chemical_string": "CC(C)(OCc1cc(-c2cccc(N3CCOCC3)c2)n(Cc2ccccc2Cl)n1)C(=O)O",
    "IC50, nM": 47000
  },
  {
    "chemical_string": "COc1cccc(-c2c(C)c(COC(C)(C)C(=O)O)nn2Cc2ccccc2Cl)c1",
    "IC50, nM": 27000
  },
  {
    "chemical_string": "COc1cccc(-c2cc(COC(C)(C)C(=O)O)nn2-c2ccc(Cl)cc2)c1",
    "IC50, nM": 81000
  }
]

Report IC50 for each item below.
1. CC(C)(OCc1cc(Cc2ccccc2)n(Cc2ccccc2Cl)n1)C(=O)O
2. COc1cccc(-c2cc(COC(C)(C)C(=O)O)nn2Cc2ccccc2C)c1
3. COc1cccc(-c2cc(COC(C)(C)C(=O)NS(C)(=O)=O)nn2Cc2ccccc2Cl)c1
4. COc1cccc(-c2cc(COC(C)(C)C(=O)O)nn2-c2cccc(Cl)c2)c1
5. COc1cc(-c2cc(COC(C)(C)C(=O)O)nn2Cc2ccccc2Cl)cs1

Response:
1. 9000
2. 83000
3. 6600
4. 78000
5. 45000
